Listing of entries alongside the reported gcPBM binding intensity (ln).
# Test system: PfAP2-HC AP2 domain (GST-tagged)
# experimental.details: gcPBM binding intensity (ln(normalized median fluorescence intensity)); higher = stronger DNA binding
In all, about 25,000 sequences were measured (“ln(normalized median fluorescence intensity)”: median about 9.7, highest 2% from about 11 on). The full list was thinned out, with the highest values kept by preference.
Give the figure by itself; no unit, no explanation.

Examples with their reported gcPBM binding intensity (ln) follow.
{"sequence.chain": "CAAAAAAACAAACACACACACACACCGATATATATA [CACACA_site9218]", "meas.value": 10.5}
{"sequence.chain": "CCCTTAATATAAAGCACACATATATATAATATATAT [CACACA_site4439]", "meas.value": 9.79}
{"sequence.chain": "ACACAAAAATAGTTTTTTATATTGTTAACCTTATAT [XGTACX_negctrl_site123]", "meas.value": 9.71}
{"sequence.chain": "TTAACAAATAAACACACACACACACCCAAAAAAAAA [CACACA_site8068]", "meas.value": 11.1}
{"sequence.chain": "TATATATATATATACACACACACACCGATATATATA [CACACA_site8813]", "meas.value": 10.5}

Query: Value lookup for gcPBM binding intensity (ln); key = TTTATTAATGGACACACACACACACCCAAAATAAAA [CACACA_site4294]
Response: 10.5

Query: Value lookup for gcPBM binding intensity (ln); key = ATATATATATATATAACACACGCAAAAAAATTAAAT [CACACA_site8395]
Response: 10.1

Query: Value lookup for gcPBM binding intensity (ln); key = TTTATTAAGAAACACACACACACACCCAAAATAAAA [CACACA_site242]
Response: 10.5

Query: Value lookup for gcPBM binding intensity (ln); key = GATATATATTAATATACACACACACCGATATATATA [CACACA_site8462]
Response: 10.2

Query: Value lookup for gcPBM binding intensity (ln); key = CAAAATAATATATATACACACACACCGATATATATA [CACACA_site8082]
Response: 10.8

Query: Value lookup for gcPBM binding intensity (ln); key = ATTCAATAAACGTATTGTACAAAAGAACGATATATT [XGTACX_site2533]
Response: 9.78

---

# Tested on: PfAP2-HC AP2 domain (GST-tagged)
# experimental.details: gcPBM binding intensity (ln(normalized median fluorescence intensity)); higher = stronger DNA binding
In all, about 25,000 sequences were measured (“ln(normalized median fluorescence intensity)”: median about 9.7, highest 2% from about 11 on). For the sample, the highest values were picked, then their nearest neighbours and some sequences at random.
attribute.measured: gcPBM binding intensity (ln)
Give the figure by itself; no unit, no explanation.

{"sequence.chain": "TAAATAAATAAAAAAACACACATATATATATATATA [CACACA_site4029]", "gcPBM binding intensity (ln)": 10}
{"sequence.chain": "TAATAAATAGGACACACACACATATTTATATATCAT [CACACA_site6771]", "gcPBM binding intensity (ln)": 11}
{"sequence.chain": "ATAAATATAGGACACACACACATATTATATATATAT [CACACA_site5658]", "gcPBM binding intensity (ln)": 10.5}
{"sequence.chain": "ATCTTATATGATCACACACACACGCACAAAACAGAA [CACACA_site4913]", "gcPBM binding intensity (ln)": 10.4}
{"sequence.chain": "TATATATATGGACACACACACATATAAATAAATAAA [CACACA_site4406]", "gcPBM binding intensity (ln)": 10.7}
{"sequence.chain": "TACAAATATGGACACACACACATATTTATATTTATA [CACACA_site6420]", "gcPBM binding intensity (ln)": 11}
{"sequence.chain": "AGGATACACGGACACACACACATATATATATATATA [CACACA_site4654]", "gcPBM binding intensity (ln)": 10.6}
{"sequence.chain": "AAAAAAAAAAAAAACACACACACACCCATACCCATA [CACACA_site5577]", "gcPBM binding intensity (ln)": 10.5}
{"sequence.chain": "CAGGCGTGAAATATACGTACACACATTATTTATATT [XGTACX_site5337]", "gcPBM binding intensity (ln)": 9.94}
{"sequence.chain": "TTTAATCAAATTAAAAGTACAGAATTGTTCATGTAG [XGTACX_site1229]", "gcPBM binding intensity (ln)": 9.53}

Query: Value lookup for gcPBM binding intensity (ln); key = TATTTATATGGACACACACACATATAAATAAATAAA [CACACA_site6346]
Response: 10.2

Query: Value lookup for gcPBM binding intensity (ln); key = TATAAATAAAAACACACACACACATATATATATATA [CACACA_site2268]
Response: 10.7

Query: Value lookup for gcPBM binding intensity (ln); key = GGACTTTATAAAAATGGTACACGCAATTCTATAATC [XGTACX_site6515]
Response: 9.61

Query: Value lookup for gcPBM binding intensity (ln); key = ACGCACGAAATAAATACATGCATATTGTAAAAATTA [TGCATGCA_site310]
Response: 9.48

Query: Value lookup for gcPBM binding intensity (ln); key = AAAGGATATGGACACACACACACATATATATATATA [CACACA_site8686]
Response: 10.6

Query: Value lookup for gcPBM binding intensity (ln); key = GTAGAGCATAATAAAACACACACATACATACATATA [CACACA_site8217]
Response: 10.4

Query: Value lookup for gcPBM binding intensity (ln); key = AACACCCAAAAACACACACACATACATACATACATA [CACACA_site4411]
Response: 10.3

Query: Value lookup for gcPBM binding intensity (ln); key = TTTAAATAAAAATGGAGTACTCTAAAAAAAAAAAAA [XGTACX_site1233]
Response: 9.37

Query: Value lookup for gcPBM binding intensity (ln); key = AAAAAAAAAAAAAAAACACACATACACCCCCACCCA [CACACA_site9117]
Response: 10.2

Query: Value lookup for gcPBM binding intensity (ln); key = ATATATCTATATGTGTGTACATATAAGTATTTATAT [XGTACX_site5333]
Response: 9.87

---

# Tested on: PfAP2-HC AP2 domain (GST-tagged)
# experimental.details: gcPBM binding intensity (ln(normalized median fluorescence intensity)); higher = stronger DNA binding
Over roughly 25,000 sequences, “ln(normalized median fluorescence intensity)” has its median near 9.7; the highest 2% begin near 11. This is one part of a sample in which the highest values are shown more often than they occur.
attribute.measured: gcPBM binding intensity (ln)
Give the figure by itself; no unit, no explanation.

{"sequence.chain": "TTATTTTACTTTTATGCAACTAAAAATATTGCTATA [XGTACX_negctrl_site277]", "target.or.test.system": "PfAP2-HC AP2 domain (GST-tagged)", "attribute.measured": "gcPBM binding intensity (ln)", "meas.value": 9.6}

Query: Value lookup for gcPBM binding intensity (ln); key = AAAAAAAAAAAAAACACACACACAATAGTATATAAA [CACACA_site957]
Response: 10.3

Query: Value lookup for gcPBM binding intensity (ln); key = AGAGTATATAAAGTAACACACAATAAAATAAAATAA [CACACA_site2328]
Response: 10.3

Query: Value lookup for gcPBM binding intensity (ln); key = AAGCAAACATATTAATGTACACACACCCACACACAA [XGTACX_site5806]
Response: 11.1

Query: Value lookup for gcPBM binding intensity (ln); key = TATAAATATACACCCACACACATATATAAATAAATA [CACACA_site7717]
Response: 10.8

Query: Value lookup for gcPBM binding intensity (ln); key = AACATATTAATGTACACACACCCACGCACAAACAAA [CACACA_site7320]
Response: 10.4

Query: Value lookup for gcPBM binding intensity (ln); key = AAAAATAAATAAGACACACACAAAAAAAAAAAAAAA [CACACA_site1432]
Response: 9.87

Query: Value lookup for gcPBM binding intensity (ln); key = ATATTAAAAAAATATAAACACACAAAAAAAAAATAT [CACACA_site8283]
Response: 9.91

Query: Value lookup for gcPBM binding intensity (ln); key = TTATGGTATAAAAAAATACACACTTATATATATTCT [CACACA_site488]
Response: 9.72

---

# System: PfAP2-HC AP2 domain (GST-tagged)
# experimental.details: gcPBM binding intensity (ln(normalized median fluorescence intensity)); higher = stronger DNA binding
In all, about 25,000 sequences were measured (“ln(normalized median fluorescence intensity)”: median about 9.7, highest 2% from about 11 on). The sample as a whole holds a higher share of the highest values than the screen did.
attribute.measured: gcPBM binding intensity (ln)
Give the figure by itself; no unit, no explanation.

{"sequence.chain": "AAAAATATAAATGACACACACTTAAAAACAAAGAAA [CACACA_site4540]", "attribute.measured": "gcPBM binding intensity (ln)", "meas.value": 10.2}
{"sequence.chain": "TATATGTTATATTTAACACACATATAAGGTACATAT [CACACA_site612]", "attribute.measured": "gcPBM binding intensity (ln)", "meas.value": 9.83}
{"sequence.chain": "TACATCTGTAATGTGTGTACATATATGTATATATTT [XGTACX_site1805]", "attribute.measured": "gcPBM binding intensity (ln)", "meas.value": 9.87}
{"sequence.chain": "ATATCTAAATATATTACACACAGATATCTTCCTATA [CACACA_site3701]", "attribute.measured": "gcPBM binding intensity (ln)", "meas.value": 9.87}
{"sequence.chain": "ACCTATTTCAAACACACACACACACCCACAAACATA [CACACA_site977]", "attribute.measured": "gcPBM binding intensity (ln)", "meas.value": 10.9}
{"sequence.chain": "GTACCTATTTCATACACACACACACCCAAACAAACA [CACACA_site976]", "attribute.measured": "gcPBM binding intensity (ln)", "meas.value": 10.5}
{"sequence.chain": "TAAAGAAATAAATACATACACACATATATATATATA [CACACA_site3363]", "attribute.measured": "gcPBM binding intensity (ln)", "meas.value": 9.89}
{"sequence.chain": "TTCCACATTTTACAGACACACACAATTTATATTACG [CACACA_site8572]", "attribute.measured": "gcPBM binding intensity (ln)", "meas.value": 10.1}

Query: Value lookup for gcPBM binding intensity (ln); key = TAATAAACTTAAAAATGTACATATATTTATTATTAC [XGTACX_site4321]
Response: 9.61

Query: Value lookup for gcPBM binding intensity (ln); key = AATATTCGTAATTGATGTACTTGTAATTCATACATT [XGTACX_site8314]
Response: 9.67

Query: Value lookup for gcPBM binding intensity (ln); key = TATAATAAAATATGTACACACATACAGACATATATA [CACACA_site6693]
Response: 9.99

Query: Value lookup for gcPBM binding intensity (ln); key = GTACCTATTTCATACACACACACACGCAAACAAACA [CACACA_site6590]
Response: 11.1

Query: Value lookup for gcPBM binding intensity (ln); key = CATAAAAATTGAAGCACACACACAAAAGAAATACAA [CACACA_site1112]
Response: 10.7
